Values compiled from ChEMBL document CHEMBL1201862.

# Tested on: U-251
# experimental.protocol: NCI tumour cell line growth inhibition, 48 h
The source made the active and inactive calls. No stated cut-off is given here; in the data, active = GI50 up to about 1.1 µM and inactive = higher.
Please reply with one of these outcomes: t = active, f = inactive

Sample answers from the record:
{"compound": "CCn1c(C)nc([N+](=O)[O-])c1Sc1ncc[nH]1", "category": "f"}
{"compound": "CCOC(=O)C12CCCC1(O)N(NC(N)=O)C(C)=C2C(=O)OC (centres undefined)", "category": "f"}
{"compound": "CC1(C(=O)Nc2ccc3cc4ccccc4cc3c2)CC2(C)CC(C)(C1)C(O)NC2=O (centres undefined)", "category": "f"}

[ask] # outcome recorded in this test, key = CN(C)c1ccc(C2CC(=O)C(C#N)=C(c3ccccc3)NN2C)cc1 (centres undefined)
[reply] f

[ask] Would you kindly repeat that for CCOC(=O)C(C(=O)OCC)=C1SC(=N\c2ccccc2)/C(=N/c2ccccc2)N1c1ccccc1 ?
[reply] f

[ask] What about Cc1ccc(S(=O)(=O)N/N=C2\CCCCCCCCCCC2CN(C)C)cc1 (centres undefined) ?
[reply] f

[ask] What about CC(=O)Nc1ccc2c(C(=O)O)c(C)c(O)nc2n1 ?
[reply] f

[ask] Please give the result for Cc1c2cc[n+](C)cc2c(C)c2c1[nH]c1ccc(O)c(OCC(F)(F)F)c12 too.
[reply] t

[ask] Proceed to O=C(/C=C\c1ccccc1)Oc1ccc(/C=C2\CCCCC2=O)cc1
[reply] f

[ask] What about COc1c(Cl)c(Cl)c(OC)c2c1C(=O)C=CC2=O ?
[reply] f
